Data origin, for the record: patent US6080790A

Tested on: PDE IV, HL60 cells
Assay: Isolated enzyme, inhibition of PDE IV from HL60 cells
Format: biochemical
Settings: 0.1 μM [3H]-cAMP, pH 7.5, 30° C.; "Ki PDEIV HL60 at 1 μM"; read-out: approximate Ki value (PDE IV HL60)
Structures can show the parent of a compound that is named as a salt.
Reported Ki is given for each of the following compounds.

Here's what some known entries look like.
> print(dat)
                                   compound  reported.value
1  COc1ccc(-c2cncc3ccccc23)cc1OC1CCCC1 [Example 2]         ~180 nM
2  COc1ccc(-c2cccc([N+](=O)[O-])c2)cc1OC1CCCC1 [Example 7]         ~250 nM

Recorded result, COc1ccc(-c2cccnc2)cc1OC1CCCC1 [Example 4, hydrochloride] , Ki: ~270 nM
